# target: JAK2 (Homo sapiens)
# Construct: GST; purchased Life Technologies
# Sequence (O60674 whole entry): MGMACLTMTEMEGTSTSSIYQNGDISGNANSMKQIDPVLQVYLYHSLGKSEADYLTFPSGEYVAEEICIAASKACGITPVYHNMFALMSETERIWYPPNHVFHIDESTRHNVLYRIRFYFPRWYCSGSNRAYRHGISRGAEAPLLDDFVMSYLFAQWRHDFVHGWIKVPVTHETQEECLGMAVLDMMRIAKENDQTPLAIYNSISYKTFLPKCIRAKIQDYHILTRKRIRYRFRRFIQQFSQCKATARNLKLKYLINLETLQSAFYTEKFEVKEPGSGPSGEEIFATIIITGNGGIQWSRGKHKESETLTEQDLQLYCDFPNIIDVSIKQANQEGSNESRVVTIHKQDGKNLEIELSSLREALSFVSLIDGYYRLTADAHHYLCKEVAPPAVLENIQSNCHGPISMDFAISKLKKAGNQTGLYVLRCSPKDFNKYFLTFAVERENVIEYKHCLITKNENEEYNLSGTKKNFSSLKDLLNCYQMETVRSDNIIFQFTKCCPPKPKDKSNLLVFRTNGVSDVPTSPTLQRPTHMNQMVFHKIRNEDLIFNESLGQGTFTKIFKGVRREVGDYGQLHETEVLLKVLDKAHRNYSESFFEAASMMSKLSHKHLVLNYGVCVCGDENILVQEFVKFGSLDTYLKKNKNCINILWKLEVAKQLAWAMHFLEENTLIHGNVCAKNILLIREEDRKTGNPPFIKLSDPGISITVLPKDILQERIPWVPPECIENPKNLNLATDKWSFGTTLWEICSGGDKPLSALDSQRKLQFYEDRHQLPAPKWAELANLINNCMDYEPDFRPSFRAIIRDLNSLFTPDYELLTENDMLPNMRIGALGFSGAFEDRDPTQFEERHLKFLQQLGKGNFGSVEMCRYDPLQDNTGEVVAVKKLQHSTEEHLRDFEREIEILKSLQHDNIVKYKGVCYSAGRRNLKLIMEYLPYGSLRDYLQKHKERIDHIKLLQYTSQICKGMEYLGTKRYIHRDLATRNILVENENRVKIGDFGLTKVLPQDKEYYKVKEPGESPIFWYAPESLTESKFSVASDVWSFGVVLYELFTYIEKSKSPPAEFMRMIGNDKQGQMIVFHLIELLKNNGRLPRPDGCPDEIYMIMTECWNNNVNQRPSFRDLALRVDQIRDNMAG
# protocol details: Biochemical JAK2 kinase assay (LanthaScreen)
# condition parameters: read-out: JAK 2 (pKi) (converted)
The following molecules are listed with their measured Ki values.

Would you please look over these solved cases?
Ki for CN1CCC[C@H]1/C=C/C(=O)N1CC(COc2cc(-c3ccc(O)cc3)cc3[nH]ncc23)C1 is 0.1 to 1 nM

Ki for C=CC(=O)N1C[C@@H](Oc2cc(-c3ccc(O)cc3)cc3[nH]ncc23)C[C@H]1C is > 100 nM

Ki for CN(C)C/C=C/C(=O)N1CC2(CCC2Oc2cc(-c3ccc(O)cc3)cc3[nH]ncc23)C1 (stereo not shown) is 1 to 10 nM

Alright, here's another molecule for you.
Ki for C=CC(=O)N1CCC(C)(Oc2cc(-c3ccc(O)cc3)cc3[nH]ncc23)CC1 is 10 to 100 nM

====

# target: JAK3 (Homo sapiens)
# Sequence (P52333 1-1124): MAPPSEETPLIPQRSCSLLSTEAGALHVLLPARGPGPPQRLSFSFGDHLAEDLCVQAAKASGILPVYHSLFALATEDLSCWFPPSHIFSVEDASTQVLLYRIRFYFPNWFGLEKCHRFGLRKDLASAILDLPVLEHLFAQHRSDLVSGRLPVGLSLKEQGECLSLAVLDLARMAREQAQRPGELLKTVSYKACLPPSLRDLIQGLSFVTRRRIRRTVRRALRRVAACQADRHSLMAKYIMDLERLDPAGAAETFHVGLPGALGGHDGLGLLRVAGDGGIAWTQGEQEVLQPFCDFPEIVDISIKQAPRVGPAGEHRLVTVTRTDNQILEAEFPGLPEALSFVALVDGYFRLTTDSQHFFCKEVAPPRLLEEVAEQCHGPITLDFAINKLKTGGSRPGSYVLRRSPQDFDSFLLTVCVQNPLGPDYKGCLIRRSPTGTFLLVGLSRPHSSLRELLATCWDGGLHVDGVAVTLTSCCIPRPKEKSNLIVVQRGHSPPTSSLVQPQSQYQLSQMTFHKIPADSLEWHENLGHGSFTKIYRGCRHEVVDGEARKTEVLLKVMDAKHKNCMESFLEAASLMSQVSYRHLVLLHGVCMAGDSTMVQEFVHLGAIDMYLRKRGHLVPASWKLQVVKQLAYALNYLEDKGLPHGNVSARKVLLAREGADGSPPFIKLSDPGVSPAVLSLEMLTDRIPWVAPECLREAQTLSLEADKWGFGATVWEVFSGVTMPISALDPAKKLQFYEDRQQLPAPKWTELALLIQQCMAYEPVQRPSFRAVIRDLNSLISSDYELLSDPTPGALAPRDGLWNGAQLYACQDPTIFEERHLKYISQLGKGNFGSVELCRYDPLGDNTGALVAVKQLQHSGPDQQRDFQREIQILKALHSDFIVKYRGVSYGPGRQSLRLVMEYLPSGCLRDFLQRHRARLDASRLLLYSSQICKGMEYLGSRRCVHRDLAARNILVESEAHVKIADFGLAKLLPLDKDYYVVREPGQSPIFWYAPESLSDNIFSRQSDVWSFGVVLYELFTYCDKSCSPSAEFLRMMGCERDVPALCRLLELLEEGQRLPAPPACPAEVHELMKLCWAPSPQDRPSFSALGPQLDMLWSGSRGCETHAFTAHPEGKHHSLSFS
# protocol details: Biochemical JAK3 kinase assay (LanthaScreen)
# Design: GST; purchased Life Technologies
# condition parameters: selectivity JAK3 over JAK1, difference of pKi
measured parameter: JAK3 (pKi)-JAK1 (pKi)

JAK3 (pKi)-JAK1 (pKi) for C=CC(=O)N1CC2(CCC2Oc2cc(-c3ccc(O)cc3)cc3[nH]ncc23)C1 (stereo not shown) [Compound 12-54] is B (a value of 2.3 to 3)

JAK3 (pKi)-JAK1 (pKi) for C=CC(=O)N1CC(COc2cc(-c3ccc(O)cc3)cc3[nH]nc(C)c23)C1 [Compound 18-5] is B (a value of 2.3 to 3)

JAK3 (pKi)-JAK1 (pKi) for CN(C)C/C=C/C(=O)N1CC2(CC(Oc3nc(-c4ccc(O)cc4)cc4[nH]ncc34)C2)C1 [Compound 15-6] is B (a value of 2.3 to 3)
